From: patent US20260365670A1

System: Ba/F3 cells expressing EGFR mutations
ASSAY_COMMENT: Cell proliferation assay, Ba/F3 cells expressing EGFR mutations (CellTiter-Glo, 72 hours)
Type: cell-based
MEASUREMENT_CONDITIONS: Mus musculus, BaF3, 72 h, EGFR DEL19 - T790M, read-out: GI50 DEL19 - T790M
PROPERTY_NAME: GI50 (µM)
Provide only the numeric value, understood in µM.

Prompt: # returns recorded GI50 (system: Ba/F3 cells expressing EGFR mutations) for Cc1cc2cc(n1)-c1cnn(C)c1OCCN1CC3CCC(C3)(C1)n1c(nc3ccccc31)NC2=O (stereo not shown) [Example B8B]
Completion: 0.0026

Prompt: # returns recorded GI50 (system: Ba/F3 cells expressing EGFR mutations) for "Cc1cc2cc(n1)-c1cnn(C)c1OCCCCCn1c(nc3ccc4c(c31)CCNC4)NC2=O"
Completion: 0.029

Prompt: # returns recorded GI50 (system: Ba/F3 cells expressing EGFR mutations) for "CN1CCN(c2cc3c(cc2F)nc2n3C34CCC(CC3)CN(CCOc3c(cnn3C)-c3cc(cn(C)c3=O)C(=O)N2)C4)CC1"
Completion: 0.018

Prompt: # returns recorded GI50 (system: Ba/F3 cells expressing EGFR mutations) for "Cn1ncc2c1OCCN1CC3CCC(CC3)(C1)n1c(nc3ccc(N4CCN(C5CC5)CC4)cc31)NC(=O)c1cc-2c(=O)n(C)c1"
Completion: 0.066

Prompt: # returns recorded GI50 (system: Ba/F3 cells expressing EGFR mutations) for "Cc1cc2cc(n1)-c1cnn(C)c1OCCN1CC3CCC(CC3)(C1)n1c(nc3ccc(N4CCC5(CC4)CCN5C)cc31)NC2=O"
Completion: 0.002

Prompt: # returns recorded GI50 (system: Ba/F3 cells expressing EGFR mutations) for "CN(C)CCN(C)c1ccc2nc3n(c2c1)C12CCC(CC1)CN(CCOc1c(cnn1C)-c1cc(cn(C)c1=O)C(=O)N3)C2"
Completion: 0.026

Prompt: # returns recorded GI50 (system: Ba/F3 cells expressing EGFR mutations) for "C[C@@H]1CCCOc2ccccc2-c2cc(cn(C)c2=O)C(=O)Nc2nc3ccc(N4CCN(C)CC4)cc3n2C1"
Completion: 0.016
